So I've got a bunch of molecules here, and I need their inhibition values.
Target: Vasoactive intestinal polypeptide receptor 2 (Homo sapiens)
Test: Antagonist activity at recombinant human N-terminal signal peptide/FLAG epitope-tagged Rluc8-fused VIPR2 expressed in HEK293 cells assessed as inhibition of VIP-induced human mVenus-beta-arrestin2 binding at 5 uM preincubated for 5 mins with luciferin, coelenterazine H followed by VIP addition measured after 5 mins by BRET assay relative to control
Type: cell-based
Give bare numbers, in %.

Example entries and their recorded answers appear below.
smiles_data=CC(C)CNc1ccc(S(=O)(=O)NC[C@@H](O)C[C@@H](Cc2ccccc2)C(=O)N[C@H]2c3ccccc3C[C@H]2O)cc1 scale_unit=% observed_result=11.9
smiles_data=O=C(NC1CCCC1)c1ccc(S(=O)(=O)NC[C@@H](O)C[C@@H](Cc2ccccc2)C(=O)N[C@H]2c3ccccc3C[C@H]2O)cc1 scale_unit=% observed_result=0.1
smiles_data=O=C(NCc1ccccc1)[C@H](Cc1ccccc1)C[C@H](O)CNS(=O)(=O)c1ccc([N+](=O)[O-])cc1 scale_unit=% observed_result=24.2

--- query ---
What value of measured inhibition is listed for NC(=O)[C@@H](Cc1ccccc1)C[C@H](O)CNS(=O)(=O)c1ccc([N+](=O)[O-])cc1 ?
7

Source of measurements: ChEMBL document CHEMBL3879914
